Biological target: mGluR5 receptor (Sus scrofa, UniProt I3LUI7)
Sequence (I3LUI7 19-1212): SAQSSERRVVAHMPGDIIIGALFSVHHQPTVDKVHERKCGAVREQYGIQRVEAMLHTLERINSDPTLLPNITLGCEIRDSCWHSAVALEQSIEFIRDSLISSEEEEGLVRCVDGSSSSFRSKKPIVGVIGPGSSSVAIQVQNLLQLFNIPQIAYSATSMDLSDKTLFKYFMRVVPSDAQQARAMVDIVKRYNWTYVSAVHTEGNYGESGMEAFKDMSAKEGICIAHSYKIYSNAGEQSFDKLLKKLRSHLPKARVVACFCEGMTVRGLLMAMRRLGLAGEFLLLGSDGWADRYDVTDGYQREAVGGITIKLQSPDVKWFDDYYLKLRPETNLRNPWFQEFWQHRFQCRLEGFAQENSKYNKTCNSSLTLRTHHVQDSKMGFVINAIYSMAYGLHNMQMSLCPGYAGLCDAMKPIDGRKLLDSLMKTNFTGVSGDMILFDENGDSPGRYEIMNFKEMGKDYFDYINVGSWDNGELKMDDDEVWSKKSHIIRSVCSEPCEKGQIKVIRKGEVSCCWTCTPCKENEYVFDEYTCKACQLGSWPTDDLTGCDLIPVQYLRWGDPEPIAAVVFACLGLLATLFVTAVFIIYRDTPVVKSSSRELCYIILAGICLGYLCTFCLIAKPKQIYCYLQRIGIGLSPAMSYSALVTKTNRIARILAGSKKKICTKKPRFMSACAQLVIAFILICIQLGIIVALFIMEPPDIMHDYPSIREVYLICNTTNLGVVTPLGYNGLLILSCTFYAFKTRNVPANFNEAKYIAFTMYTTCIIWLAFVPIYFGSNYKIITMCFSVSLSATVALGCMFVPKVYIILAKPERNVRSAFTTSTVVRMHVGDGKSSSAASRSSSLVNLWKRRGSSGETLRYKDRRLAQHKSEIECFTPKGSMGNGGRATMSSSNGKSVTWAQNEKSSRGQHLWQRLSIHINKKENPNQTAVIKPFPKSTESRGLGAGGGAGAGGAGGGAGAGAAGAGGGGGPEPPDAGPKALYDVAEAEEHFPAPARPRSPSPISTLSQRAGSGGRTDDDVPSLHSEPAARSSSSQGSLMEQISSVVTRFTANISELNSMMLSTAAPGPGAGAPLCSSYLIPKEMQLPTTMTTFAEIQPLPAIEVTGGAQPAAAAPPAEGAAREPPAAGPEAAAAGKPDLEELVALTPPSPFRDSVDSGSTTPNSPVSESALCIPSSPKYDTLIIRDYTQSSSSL
Structures can show the parent of a compound that is named as a salt.
measured-endpoint: pIC50
Reminder that pIC50 means the negative base-10 logarithm of the concentration expressed in mol/L.

Record excerpt, results attached:
>>> val("CC(C)(C)Nc1c(-c2ccc(C#Cc3cccc(N)n3)s2)nc2cnccn12 [Example 136, hydrochloride]")
4.86
>>> val("CC(C)(C)Nc1c(-c2ccc(C#Cc3ccsc3)s2)nc2cnccn12 [Example 156, hydrochloride]")
7.57
>>> val("COC(=O)CNc1c(-c2ccc(C#Cc3ccccc3)s2)nc2cnccn12")
5.89
>>> val("CC(C)(C)Nc1c(-c2ccc(C#Cc3cccc(F)c3)s2)nc2cnccn12 [Example 104, hydrochloride]")
7.04
>>> val("COC(=O)c1nccn2c(NC(C)(C)CC(C)(C)C)c(-c3ccc(C#Cc4ccccc4)s3)nc12")
5.88

Ask | Value lookup for pIC50; key = "CC(=O)Nc1c(-c2ccc(C#Cc3ccccc3)s2)nc2cnccn12"
Reply | 5.42

Ask | # pIC50 lookup, item "CC(C)(C)Nc1c(-c2ccc(C#Cc3ncc(F)cc3F)s2)nc2cnccn12"
Reply | 7.29

Ask | GET /values?readout=pIC50&item= Cc1cccnc1C#Cc1ccc(-c2nc3ccccn3c2NC(C)(C)C)s1 [Example 351, hydrochloride]
Reply | 6.64

Ask | For the molecule CN(C)c1cccc(C#Cc2ccc(-c3nc4cnccn4c3NC(C)(C)C)s2)c1 [Example 157, hydrochloride] , what pIC50 is on record?
Reply | 5.81

Ask | So what's the measured pIC50 for this one? COc1cncc(C#Cc2ccc(-c3nc4cnccn4c3NC(C)(C)C)s2)c1 [Example 171, hydrochloride]
Reply | 6.44

Ask | Give the measured pIC50 of "CC(C)(C)Nc1c(-c2cnc(C#Cc3ccccc3)s2)nc2cnccn12" .
Reply | 7.46

Ask | Given the molecule CC(C)(C)Nc1c(-c2ccc(C#Cc3ccc(F)c(C#N)c3)s2)nc2ccccn12 [Example 344, hydrochloride] , what is its reported pIC50?
Reply | 6.77

Ask | Record request: pIC50 value, item "CC(C)(C)Nc1c(-c2ccc(C#Cc3ccccn3)s2)nc2ncccn12"
Reply | 8.55

###

The following compounds are listed with their measured inhibition at 10 µM values.
Biological target: mGluR5 receptor (Sus scrofa)
Experiment: Affinity for the mGluR5 receptor: inhibition of 3[H]-MPEP binding in pig brain homogenate
Details: 10 μM compound, 5 nM 3[H]-MPEP, read-out: mGluR5 receptor inhibition of ^3[H]-MPEP binding [10 μM] in % at a concentration of the example compounds of 10 μM
Your answer is read as %, so omit the unit and give the number.

>>> val("C(#Cc1csc(-c2nc3ccccn3c2NCC2CCCCC2)c1)c1ccccc1")
57
>>> val("CCc1ccn2c(NCc3ccccc3OC)c(-c3ccc(C#Cc4ccccc4)s3)nc2c1")
75
>>> val("Cc1cccn2c(NC(C)c3ccccc3)c(-c3ccc(C#Cc4ccccc4)s3)nc12 (stereo not shown)")
95
>>> val("Cc1ccn2c(Nc3ccc(F)cc3)c(-c3cccc(C#Cc4ccccn4)c3)nc2c1")
95
>>> val("CC(C)(C)c1ccn2c(Nc3ccccc3F)c(-c3ccc(C#Cc4ccccc4)s3)nc2c1")
85
>>> val("Cc1cccn2c(NCc3ccc(Cl)cc3)c(-c3ccc(C#Cc4ccccc4)s3)nc12")
67
>>> val("Cc1nc(C#Cc2ccccc2)ccc1-c1nc2cnccn2c1NC1CCCC1")
80
>>> val("Fc1ccc(Nc2c(-c3ccc(C#Cc4ccccc4)s3)nc3cc(-c4ccccc4)ccn23)cc1Cl")
98

Ask | Consider the compound shown here: "C(#Cc1csc(-c2nc3cnccn3c2NC2CCCC2)c1)c1ccccc1" What is its recorded inhibition at 10 µM?
Reply | 90

Ask | Fill in: inhibition at 10 µM of "Clc1ccc2nc(-c3ccc(C#Cc4ccccn4)s3)c(NC3CCCC3)n2c1" is ___
Reply | 86

###

Target: mGluR5 receptor (Sus scrofa)
Structures can show the parent of a compound that is named as a salt.
measured-endpoint: pIC50
The read-out pIC50 is expressed as -log10 of concentration in moles per litre.

Observe how each entry below is paired with its result.
>>> val("CC(C)(C)Nc1c(-c2ccc(C#Cc3cccc(N)c3)s2)nc2ccccn12 [Example 347, hydrochloride]")
6.04
>>> val("CC(C)(C)Nc1c(-c2ccc(C#Cc3ccc(C#N)cc3)s2)nc2cnccn12 [Example 144, hydrochloride]")
5.43
>>> val("COc1ccc(C#Cc2ccc(-c3nc4cnccn4c3NC(C)(C)C)s2)cc1 [Example 114, hydrochloride]")
5.68
>>> val("CC(C)(C)Nc1c(-c2ccc(C#Cc3ncccn3)s2)nc2ccccn12 [Example 325, hydrochloride]")
7.89
>>> val("CC(C)(C)Nc1c(-c2ccc(C#Cc3ccncc3)s2)nc2ccccn12 [Example 132, hydrochloride]")
7.80
>>> val("CC(C)(C)Nc1c(-c2ccc(C#Cc3cccc(O)c3)s2)nc2cnccn12 [Example 122]")
6.89
>>> val("CC(C)(C)Nc1c(-c2ccc(C#Cc3ccccn3)s2)nc2cnccn12 [Example 77]")
8.24
>>> val("CC(C)(C)Nc1c(-c2ccc(C#Cc3cccc(-n4cccc4)c3)s2)nc2cnccn12 [Example 148, hydrochloride]")
6.48
>>> val("Cc1nc(C#Cc2ccccc2)ccc1-c1nc2cnccn2c1NC(C)(C)C [Example 118]")
5.20
>>> val("CC(C)(C)Nc1c(-c2ccc(C#Cc3ccccc3N)s2)nc2cnccn12 [Example 124, hydrochloride]")
6.77

Ask | Quick one: pIC50 for CC(C)(C)Nc1c(-c2ccc(C#Cc3ccc(F)cn3)s2)nc2cnccn12 [Example 169, hydrochloride] ?
Reply | 7.96

Ask | Value lookup for pIC50; key = CC(C)(C)Nc1c(-c2cnc(C#Cc3ccccn3)s2)nc2cnccn12 [Example 181]
Reply | 7.74

Ask | Need pIC50 of CC(C)(C)Nc1c(-c2ccc(C#Cc3ccccn3)o2)nc2cnccn12 [Example 119] , thanks.
Reply | 7.44

###

Molecular target: UniProt I3LUI7
Test: Affinity for the mGluR5 receptor: inhibition of 3[H]-MPEP binding in pig brain homogenate
Details: 10 μM compound, 5 nM 3[H]-MPEP, read-out: mGluR5 receptor inhibition of ^3[H]-MPEP binding [10 μM] in % at a concentration of the example compounds of 10 μM
This section presents compounds with their documented inhibition at 10 µM values.
Quick reminder: number only, in %, skip the unit.

Consider the worked cases shown below.
>>> val("COc1cccc(Nc2c(-c3ccc(C#Cc4ccccc4)s3)nc3cnccn23)c1 [Example 43]")
83
>>> val("Clc1ccccc1CNc1c(-c2ccc(C#Cc3ccccc3)s2)nc2ccccn12 [Example 39]")
72
>>> val("COc1ccccc1CNc1c(-c2ccc(C#Cc3ccccc3)s2)nc2ccccn12 [Example 38]")
87

Ask | Lab note: need inhibition at 10 µM for COc1cccc(CCNc2c(-c3cc(C#Cc4ccccc4)cs3)nc3cccc(C)n23)c1 [Example 199] on UniProt I3LUI7, anyone have it?
Reply | 57

Ask | Quick check: inhibition at 10 µM on UniProt I3LUI7, item Cc1ccn2c(NC3CCCCC3)c(-c3ccc(C#Cc4ccccn4)s3)nc2c1 [Example 274] ?
Reply | 85

Ask | Give UniProt I3LUI7 inhibition at 10 µM for CCc1ccn2c(NC3CCCCC3)c(-c3ccc(C#Cc4ccccn4)s3)nc2c1 [Example 298]
Reply | 95

Ask | Lookup: inhibition at 10 µM / UniProt I3LUI7 / COc1ccccc1CNc1c(-c2ccc(C#Cc3ccccc3)s2)nc2nc(C)ccn12 [Example 40]
Reply | 87

###

Biological target: mGluR5 receptor (Sus scrofa)
Experiment: Affinity for the mGluR5 receptor: inhibition of 3[H]-MPEP binding in pig brain homogenate
Settings: 10 μM compound, 5 nM 3[H]-MPEP, read-out: mGluR5 receptor inhibition of ^3[H]-MPEP binding [10 μM] in % at a concentration of the example compounds of 10 μM
Quick rule: inhibition at 10 µM of at least 80% means 1, below that means 0.

Reference set (5 entries):
>>> label("Cc1ccn2c(NC(C)c3ccccc3)c(-c3ccc(C#Cc4ccccc4)s3)nc2n1 (stereo not shown) [Example 36]")
1
>>> label("Cc1ccn2c(NC(C)(C)C)c(-c3ccc(C#Cc4ccccn4)cc3)nc2c1 [Example 278]")
1
>>> label("CCCCNc1c(-c2cc(C#Cc3ccccc3)cs2)nc2ccc(Br)c(C)n12 [Example 222]")
0
>>> label("CCCCC(C)(C)Nc1c(-c2cc(C#Cc3ccccc3)cs2)nc2cnccn12 [Example 200]")
0
>>> label("COc1ccc(CNc2c(-c3ccc(C#Cc4ccccc4)s3)nc3cnccn23)cc1 [Example 17]")
1

Ask | For this compound, is measured inhibition at 10 µM 80% or higher? CC(C)(C)Nc1c(-c2ccc(C#Cc3cc(F)cc(F)c3)s2)nc2ccccn12 [Example 349]
Reply | 0

Ask | Textbook exercise: given the entry CCc1ccn2c(NC3CCCC3)c(-c3ccc(C#Cc4ccccc4)nc3)nc2c1 [Example 302] , state whether its inhibition at 10 µM is greater than or equal to 80%.
Reply | 0

Ask | Determine whether this compound has inhibition at 10 µM no lower than 80%: Cc1cc(C)n2c(NC3CCCCC3)c(-c3ccc(C#Cc4ccccc4)nc3C)nc2n1 [Example 293]
Reply | 0

Ask | Check this compound for inhibition at 10 µM at or above 80%: CC(C)(C)Nc1c(-c2ccc(C#Cc3ccccn3)o2)nc2ncccn12 [Example 258]
Reply | 1

Ask | Decide: inhibition at 10 µM of COc1ccc(CNc2c(-c3ccc(C#Cc4ccccc4)s3)nc3cc(C)ccn23)cc1 [Example 12] >= 80%?
Reply | 1

Ask | API: above_or_equal(metric=inhibition at 10 µM, cutoff=80%) for item Cc1cc(C)n2c(NCc3ccc(F)cc3)c(-c3ccc(C#Cc4ccccc4)s3)nc2c1 [Example 52]
Reply | 0
